test.target: Macaca fascicularis IL-36R extracellular domain expressed with a C-terminal myc-myc-hexahistidine tag (Macaca fascicularis)
experiment: SPR Biacore T200, mAb captured by anti-hFc, 25C, PBS-T pH 6.0
endpoint.label: koff (s⁻¹)
State the answer as a number, implicitly in s⁻¹.

Record H4H14709P (antibody, human IgG4 S228P, kappa, V domains shown) VH: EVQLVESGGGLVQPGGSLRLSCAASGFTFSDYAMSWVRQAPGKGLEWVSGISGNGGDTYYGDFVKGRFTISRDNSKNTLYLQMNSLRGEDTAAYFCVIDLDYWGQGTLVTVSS VL: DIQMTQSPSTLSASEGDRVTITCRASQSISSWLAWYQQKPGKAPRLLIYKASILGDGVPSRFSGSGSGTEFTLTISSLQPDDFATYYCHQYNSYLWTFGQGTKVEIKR , field koff: 0.00112
